Attribution: patent US20200308290A1

- System tested: T1, human CD25 (recombinant soluble) (human, UniProt P01589 22-240)
- T1 construct: extracellular domain; bought protein; also called IL2-Rα; recombinant human IL2-Rα
- T1 sequence (looked up): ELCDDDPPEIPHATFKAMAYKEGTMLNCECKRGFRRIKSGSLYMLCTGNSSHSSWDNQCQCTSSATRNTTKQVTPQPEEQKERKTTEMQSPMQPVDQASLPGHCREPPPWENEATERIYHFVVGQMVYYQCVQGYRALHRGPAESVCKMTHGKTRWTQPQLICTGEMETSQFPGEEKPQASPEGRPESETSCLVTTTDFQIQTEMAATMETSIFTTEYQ
- Protocol notes: competitive ELISA with biotinylated daclizumab on CD25
Readout kind: fold affinity over the parental antibody

INSERT INTO results (binder, experimental_value) VALUES
  ('RRGFE (antibody, IgG1, name in Kabat numbering, V domains shown, soluble IgG1 from the VH library; Kabat numbers; also called VH variant RRGFE) VH: QVQLVQSGAEVKKPGSSVKVSCKASGYTFTSYRMHWVRQAPGQGLEWIGYIRPRGGFTEYNQKFKDKATITADESTNTAYMELSSLRSEDTAVYYCARGGGVFDYWGQGTLVTVSS VL: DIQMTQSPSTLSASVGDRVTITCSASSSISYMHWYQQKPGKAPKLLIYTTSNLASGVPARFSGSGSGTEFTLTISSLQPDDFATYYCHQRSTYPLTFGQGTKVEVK', '~10 fold');

Quick note, fold affinity over the parental antibody for RKGFN (antibody, IgG1, name in Kabat numbering, V domains shown, soluble IgG1 from the VH library; Kabat numbers; also called VH variant RKGFN) VH: QVQLVQSGAEVKKPGSSVKVSCKASGYTFTSYRMHWVRQAPGQGLEWIGYIRPKGGFTNYNQKFKDKATITADESTNTAYMELSSLRSEDTAVYYCARGGGVFDYWGQGTLVTVSS VL: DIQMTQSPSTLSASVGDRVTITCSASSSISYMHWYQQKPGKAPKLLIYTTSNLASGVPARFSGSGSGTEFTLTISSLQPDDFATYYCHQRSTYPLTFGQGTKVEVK landed at ~10 fold
